Recorded values, source patent US20030236218A1.

# Method notes: Pharmacokinetic studies in mice, intravenous administration
# Format: in vivo, Balb/c mice
# Conditions: female, Balb/c, mouse, in vivo, iv, 40 mg/kg, after i.v. 40 mg/kg d4T; mean ± S.E.M
Readout name: Cmax (µM)
Quick note: give the figure in µM, leave out the unit.

Task item: Item Cc1cn([C@H]2C=C[C@@H](CO)O2)c(=O)[nH]c1=O [d4T, 2′, 3′-Didehydro-3′-deoxy thymidine, reference compound] has what recorded Cmax?
Reply: 319

###

Field: pIC50. Provide a value for each of the molecules that follow.
# Test system: cytomegalovirus (CMV) strain AD169
# Method notes: CMV plaque formation assay in SF cells
# Format: cell-based
# Conditions: Human betaherpesvirus 5
pIC50: −log10 of the molar value.

Task item: Item COC(=O)C(C)NP(=O)(OC[C@@H]1C=C[C@H](n2cc(C)c(=O)[nH]c2=O)O1)Oc1ccc(Br)cc1 (stereo partly drawn) has what recorded pIC50?
Reply: < 4.00

Task item: And what about the molecule Cc1cn([C@H]2C=C[C@@H](CO)O2)c(=O)[nH]c1=O [d4T, 2′, 3′-Didehydro-3′-deoxy thymidine, reference compound] ?
Reply: < 4.00

Task item: And what about the molecule COC(=O)C(C)NP(=O)(OCC1C=CC(n2cc(C)c(=O)[nH]c2=O)O1)Oc1ccc(Cl)cc1 (stereo not drawn) ?
Reply: < 4.00

###

# Method notes: Octanol/water partition coefficient, shake flask method
# Format: physicochemical
# Conditions: 4 hours at room temperature
Classify: criterion met when Oct/Water (log P) is strictly less than 0.5; criterion not met when Oct/Water (log P) is not.

Task item: Here's an entry: COC(=O)[C@H](C)NP(=O)(OCC1C=CC(n2cc(C)c(=O)[nH]c2=O)O1)Oc1ccc(OC)cc1 (stereo partly shown) . Is its Oct/Water (log P) below 0.5?
Reply: criterion met

Task item: And what about the molecule COC(=O)C(C)NP(=O)(OCC1C=CC(n2cc(C)c(=O)[nH]c2=O)O1)Oc1c(OC)cccc1OC (stereo not shown) ?
Reply: criterion met

Task item: And what about the molecule COC(=O)C(C)NP(=O)(OCC1C=CC(n2cc(C)c(=O)[nH]c2=O)O1)Oc1cc(Cl)ccc1Cl (stereo not shown) ?
Reply: criterion not met

Task item: And what about the molecule COC(=O)C(C)NP(=O)(OCC1C=CC(n2cc(C)c(=O)[nH]c2=O)O1)Oc1ccccc1Cl (stereo not shown) ?
Reply: criterion not met

Task item: And what about the molecule COC(=O)[C@H](C)NP(=O)(OCC1C=CC(n2cc(C)c(=O)[nH]c2=O)O1)Oc1cccc(N(C)C)c1 (stereo partly shown) ?
Reply: criterion not met

Task item: And what about the molecule COC(=O)C(C)NP(=O)(OCC1C=CC(n2cc(C)c(=O)[nH]c2=O)O1)Oc1ccccc1Br (stereo not shown) ?
Reply: criterion not met

Task item: And what about the molecule COC(=O)C(C)NP(=O)(OCC1C=CC(n2cc(C)c(=O)[nH]c2=O)O1)Oc1ccc(Br)cc1Cl (stereo not shown) ?
Reply: criterion not met

Task item: And what about the molecule COC(=O)[C@H](C)NP(=O)(OCC1C=CC(n2cc(C)c(=O)[nH]c2=O)O1)Oc1ccc(F)cc1 (stereo partly shown) ?
Reply: criterion not met

Task item: And what about the molecule COC(=O)[C@H](C)NP(=O)(OCC1C=CC(n2cc(C)c(=O)[nH]c2=O)O1)Oc1ccccc1 (stereo partly shown) ?
Reply: criterion met
